Taken from the NIST ThermoML archive (doi:10.1021/acs.jced.6b00803).

Settings: 298.15 K; 101.33 kPa; Liquid; Vibrating tube method
Overview of recorded mass density for various molecules
endpointName: mass density (kg/m3)

> print(dat)
                              molecule  endpointname  recordedmeasurement
1                       CCCCCCCCCCCCCC  mass density              759.275
2  CC(=O)OCc1ccccc1 [benzyl ethanoate]  mass density               1051.1
3                         CCCCCCCCCCCC  mass density              745.508
4                     CC(=O)CCc1ccccc1  mass density              984.742
5                     CCCCCCCCCCCCCCCC  mass density              770.221
